Hey, just so you know, these numbers are from patent US9062033B2.

Below, each entry is listed alongside its reported Kb.
- system.name: human OX2 receptors (Homo sapiens, UniProt O43614)
- Construct: expressed in transfected cells; host or cells: HEK-293 cells
- assay.protocol: Antagonistic activity against human OX2 receptor, [Ca2+]i fluorimetry (Fluo-4NW) in transfected HEK-293 cells activated with orexin-B
- Type: cell-based
- test.settings: HEK-293 cells transfected with human recombinant OX2; orexin-B 10 nM; pKb = co-logarithm of apparent dissociation constant, modified Cheng Prusoff
The reply should be a number in nM, with the unit left off.

Reference set, count: 6
Cc1ccc(OCc2ccccc2)c(C(=O)N2CC3(CC3)C[C@H]2CNc2ccc(C(F)(F)F)cn2)n1: 2.51
O=C(c1ncccc1-c1ccccc1)N1CC2(CC2)C[C@H]1CNc1ccc(C(F)(F)F)cn1: 50.1
N#Cc1ccc(-c2ncccn2)c(C(=O)N2CC3(CC3)C[C@H]2CNc2ccc(C(F)(F)F)cn2)c1: 7.94
Cc1nc(C(=O)N2CC3(CC3)C[C@H]2CNc2ccc(Cl)cn2)c(-c2ccccc2)s1: 79.4
Cc1ccc(-c2nccs2)c(C(=O)N2CC3(CC3)C[C@H]2CNc2ccc(C(F)(F)F)cn2)n1: 10
Cc1ccc(-c2ncccn2)c(C(=O)N2CC3(CC3)C[C@H]2CNc2ncc(C(F)(F)F)cc2F)n1: 10

Please look at the following compound next.
Kb on human OX2 receptors (Homo sapiens, UniProt O43614) for Cc1nc(C(=O)N2CC3(CC3)C[C@H]2CNc2cc(C(F)(F)F)ccn2)c(-c2ccccc2)s1 is 3.16

====

- system.name: human OX2 receptors (Homo sapiens, UniProt O43614)
- Construct: expressed in transfected cells; host or cells: HEK-293 cells
- assay.protocol: Antagonistic activity against human OX2 receptor, [Ca2+]i fluorimetry (Fluo-4NW) in transfected HEK-293 cells activated with orexin-B
- Type: cell-based
- test.settings: HEK-293 cells transfected with human recombinant OX2; orexin-B 10 nM; pKb = co-logarithm of apparent dissociation constant, modified Cheng Prusoff
Kb values, listed per item
Only the number, expressed in nM, is required.

Cc1ccc(-c2ccccc2)c(C(=O)N2CC3(CC3)C[C@H]2CNc2ncc(C(F)(F)F)cc2F)n1: 7.94
Cc1ccc(-c2ccc(F)c(F)c2)c(C(=O)N2CC3(CC3)C[C@H]2CNc2ccc(C(F)(F)F)cn2)n1: 20
Cc1ccc(-c2ccc(C)nc2C(=O)N2CC3(CC3)C[C@H]2CNc2ccc(C(F)(F)F)cn2)c(F)c1: 31.6

// next entry
Looking up Cc1cc(C)nc(NC[C@@H]2CC3(CC3)CN2C(=O)c2nc(C)sc2-c2ccccc2)n1 , I found its Kb recorded as 2.51

====

- system.name: human OX1 receptors (Homo sapiens, UniProt O43613)
- Construct: expressed in transfected cells; host or cells: CHO cells
- Sequence (O43613 whole entry): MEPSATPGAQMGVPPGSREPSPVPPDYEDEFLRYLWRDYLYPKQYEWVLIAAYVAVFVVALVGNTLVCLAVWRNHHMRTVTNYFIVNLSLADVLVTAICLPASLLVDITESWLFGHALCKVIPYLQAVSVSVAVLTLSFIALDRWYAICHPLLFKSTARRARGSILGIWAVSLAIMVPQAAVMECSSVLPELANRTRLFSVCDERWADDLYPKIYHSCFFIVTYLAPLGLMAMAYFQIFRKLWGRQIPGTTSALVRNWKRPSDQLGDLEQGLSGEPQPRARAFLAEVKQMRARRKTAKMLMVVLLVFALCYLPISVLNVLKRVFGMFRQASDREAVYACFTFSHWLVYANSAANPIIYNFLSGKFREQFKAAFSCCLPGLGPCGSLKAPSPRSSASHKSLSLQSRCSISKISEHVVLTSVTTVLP
- assay.protocol: Antagonistic activity against human OX1 receptor, [Ca2+]i fluorimetry (Fluo-4NW) in transfected CHO cells activated with orexin-A
- Format: cell-based
- test.settings: CHO cells transfected with human recombinant OX1; orexin-A 3 nM; pKb = co-logarithm of apparent dissociation constant, modified Cheng Prusoff
Some compounds, each annotated with its measured Kb.
State just the number; it will be interpreted in nM.

Answered cases to consult:
Cc1nc(C(=O)N2CC3(CC3)C[C@H]2CNc2ncc(Cl)cn2)c(-c2ccccc2)s1: 158
Cc1ccc(OCc2cccc(F)c2F)c(C(=O)N2CC3(CC3)C[C@H]2CNc2ccc(C(F)(F)F)cn2)n1: 25.1

For Cc1ccc(-c2ccc(F)c(F)c2)c(C(=O)N2CC3(CC3)C[C@H]2CNc2ccc(C(F)(F)F)cn2)n1 the compound record lists Kb as 12.6

Reported Kb for Cc1nc(C(=O)N2CC3(CC3)C[C@H]2CNc2ccc(Cl)cn2)c(-c2ccccc2)s1 was 5.01

So, Cc1ccc(-c2ncccn2)c(C(=O)N2CC3(CC3)C[C@H]2CNc2nc3cc(Cl)ccc3o2)n1 ? Its Kb was 7.94

Cc1ccc(-c2ncccn2)c(C(=O)N2CC3(CC3)C[C@H]2CNc2ccc(C(F)(F)F)cn2)n1 yielded Kb of 3.98

====

- system.name: human OX1 receptors (Homo sapiens)
- Construct: expressed in transfected cells; host or cells: CHO cells
- assay.protocol: Antagonistic activity against human OX1 receptor, [Ca2+]i fluorimetry (Fluo-4NW) in transfected CHO cells activated with orexin-A
- Format: cell-based
- test.settings: CHO cells transfected with human recombinant OX1; orexin-A 3 nM; pKb = co-logarithm of apparent dissociation constant, modified Cheng Prusoff
# maps each entry to its Kb
Please state the value followed by its unit.

Cc1cc(C(F)(F)F)cc(NC[C@@H]2CC3(CC3)CN2C(=O)c2cc(F)ccc2-c2ncccn2)n1 [Compound 1j]: 20 nM
N#Cc1ccc(-c2ncccn2)c(C(=O)N2CC3(CC3)C[C@H]2CNc2ccc(C(F)(F)F)cn2)c1 [Compound E12]: 10 nM
Cc1nc(C(=O)N2CC3(CC3)C[C@H]2CNc2cc(C(F)(F)F)ccn2)c(-c2ccccc2)s1 [Compound 2j]: 6.31 nM
Cc1ccc(-c2ncccn2)c(C(=O)N2CC3(CC3)C[C@H]2CNc2ncc(C(F)(F)F)cc2F)c1 [Compound 1l]: 5.01 nM
O=C(c1cc(Cl)ccc1-c1ncccn1)N1CC2(CC2)C[C@H]1CNc1cc(C(F)(F)F)ccn1 [Compound 1f]: 7.94 nM

Recorded Kb for Cc1ccc(-c2ccc(F)cc2)c(C(=O)N2CC3(CC3)C[C@H]2CNc2ccc(C(F)(F)F)cn2)n1 [Compound 3f] on human OX1 receptors (Homo sapiens) was 7.94 nM

Entry CS(=O)(=O)c1ccc(-c2ccccc2)c(C(=O)N2CC3(CC3)C[C@H]2CNc2ccc(C(F)(F)F)cn2)c1 [Compound 1d] : Kb on human OX1 receptors (Homo sapiens) = 200 nM

Record Cc1ccc(-c2ncccn2)c(C(=O)N2CC3(CC3)C[C@H]2CNc2cc(C(F)(F)F)ccn2)c1 [Compound 1n] ; system human OX1 receptors (Homo sapiens); Kb = 50.1 nM

Recorded Kb for O=C(c1cc(Cl)ccc1-c1ncccn1)N1CC2(CC2)C[C@H]1CNc1nccc(C(F)(F)F)n1 [Compound 1q] on human OX1 receptors (Homo sapiens) was 39.8 nM

Log: human OX1 receptors (Homo sapiens), molecule Cc1ccc(-n2ccc(C)n2)c(C(=O)N2CC3(CC3)C[C@H]2CNc2ccc(C(F)(F)F)cn2)n1 [Compound 3j] , Kb = 1.26 nM

Value (Kb, human OX1 receptors (Homo sapiens)) for record O=C(c1c(F)cccc1-c1ncccn1)N1CC2(CC2)C[C@H]1CNc1ncc(C(F)(F)F)cc1F [Compound 1g] = 1.26 nM

Fill in: human OX1 receptors (Homo sapiens) Kb for Cc1ccc(OCc2ccc(F)cc2F)c(C(=O)N2CC3(CC3)C[C@H]2CNc2ccc(C(F)(F)F)cn2)n1 [Compound 3n] = 79.4 nM

With human OX1 receptors (Homo sapiens) as the test system, O=C(c1cc(Cl)ccc1-c1ncccn1)N1CC2(CC2)C[C@H]1CNc1cc(C(F)(F)F)c(Cl)cn1 [Compound 1t] showed Kb of 7.94 nM

Item: Cc1ccc(OCc2ccccc2)c(C(=O)N2CC3(CC3)C[C@H]2CNc2ccc(C(F)(F)F)cn2)n1 [Compound 3k] | System: human OX1 receptors (Homo sapiens) | Kb: 2.51 nM

Entry Cc1nc(C(=O)N2CC3(CC3)C[C@H]2CNc2nc3ccc(Cl)cc3s2)c(-c2ccccc2)s1 [Compound 2i] : Kb on human OX1 receptors (Homo sapiens) = 12.6 nM

====

- system.name: human OX2 receptors (Homo sapiens, UniProt O43614)
- Construct: expressed in transfected cells; host or cells: HEK-293 cells
- Sequence (O43614 1-444): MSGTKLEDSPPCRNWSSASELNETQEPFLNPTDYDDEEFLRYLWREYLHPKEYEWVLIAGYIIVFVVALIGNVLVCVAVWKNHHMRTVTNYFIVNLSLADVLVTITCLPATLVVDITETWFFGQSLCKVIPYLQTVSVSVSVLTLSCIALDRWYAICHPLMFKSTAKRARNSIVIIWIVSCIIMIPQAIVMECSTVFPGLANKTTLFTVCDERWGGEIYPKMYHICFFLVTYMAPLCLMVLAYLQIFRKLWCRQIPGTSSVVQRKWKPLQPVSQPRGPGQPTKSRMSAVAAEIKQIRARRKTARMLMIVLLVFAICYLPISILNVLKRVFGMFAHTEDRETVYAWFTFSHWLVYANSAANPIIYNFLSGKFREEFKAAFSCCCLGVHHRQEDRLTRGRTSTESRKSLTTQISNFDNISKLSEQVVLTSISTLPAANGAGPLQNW
- assay.protocol: Antagonistic activity against human OX2 receptor, [Ca2+]i fluorimetry (Fluo-4NW) in transfected HEK-293 cells activated with orexin-B
- Assay type: cell-based
- test.settings: HEK-293 cells transfected with human recombinant OX2; orexin-B 10 nM; pKb = co-logarithm of apparent dissociation constant, modified Cheng Prusoff
Rule: Kb under 30 nM gives -1, otherwise 1.

Examples from the recorded data:
Cc1ccc(-c2ncccn2)c(C(=O)N2CC3(CC3)C[C@H]2CNc2ncc(C(F)(F)F)cc2Cl)n1 [Compound 3g]: -1
Cc1cc(C(F)(F)F)cc(NC[C@@H]2CC3(CC3)CN2C(=O)c2cc(F)ccc2-c2ncccn2)n1 [Compound 1j]: -1
O=C(c1ncccc1-c1ccccn1)N1CC2(CC2)C[C@H]1CNc1ccc(C(F)(F)F)cn1 [Compound E7]: 1
Cc1ccc(-c2ncccn2)c(C(=O)N2CC3(CC3)C[C@H]2CNc2cnc(C(F)(F)F)cn2)n1 [Compound 3h]: 1
Cc1nc(C(=O)N2CC3(CC3)C[C@H]2CNc2ccc(C(F)(F)F)cn2)c(-c2ccccc2)s1 [Compound 2d]: -1

Q: Hi, just wondering whether Cc1ccc(OCc2cc(F)cc(F)c2)c(C(=O)N2CC3(CC3)C[C@H]2CNc2ccc(C(F)(F)F)cn2)n1 [Compound 3o] shows Kb of 30 nM or higher.
Result: -1

Q: Given O=C(c1cccc2c1OC(F)(F)O2)N1CC2(CC2)C[C@H]1CNc1ccc(C(F)(F)F)cn1 [Compound 1b] , state whether its Kb is at least 30 nM.
Result: 1

Q: Could you please find out whether Cc1ccc(-c2ccccc2)c(C(=O)N2CC3(CC3)C[C@H]2CNc2ccc(C(F)(F)F)cn2)n1 [Compound 3b] has Kb that meets 30 nM or exceeds it?
Result: -1

Q: Reported Kb reaches at least 30 nM for Cc1ccc(-c2ccc(F)cc2)c(C(=O)N2CC3(CC3)C[C@H]2CNc2ccc(C(F)(F)F)cn2)n1 [Compound 3f] ?
Result: -1

Q: Record Cc1ccc(-c2ncccn2)c(C(=O)N2CC3(CC3)C[C@H]2CNc2nccc(C(F)(F)F)n2)c1 [Compound 1p] ; criterion: Kb no lower than 30 nM. Met?
Result: -1

Q: Determine whether measured Kb meets or exceeds 30 nM for Cc1ccc(-c2ncccn2)c(C(=O)N2CC3(CC3)C[C@H]2CNc2ncc(C(F)(F)F)cc2F)c1 [Compound 1l]
Result: -1
